assay: Ligand binding assay by ANS displacement, CBD; details: Table 3; 2 μM protein, 20 μM ANS, 33 μM ligand, 20° C.
endpoint_name: Purification Status (binding to CBD)

[ask] I would be grateful if you could share the reported Purification Status (binding to CBD) for SEQ ID NO. 148: Odorant-binding protein, partial, Heterocephalus glaber (naked mole-rat) (protein, Heterocephalus glaber) MINGDWCSIYIAADNVEKIEERGELRAYFCHIECQDECRNLSGGDRIMRNKHCCVGLSFRLDGVCQEFTVVGVKDEKSGVYITDYVGKNYFTVVESTEYITLFSNIIVDEKGTKMNVVLVAAKRDSLTEKEKQKFAQLAEEKGIPTENIRNVIAT .
[reply] Binds to THC

[ask] I would be grateful if you could share the reported Purification Status (binding to CBD) for SEQ ID NO. 33: OVA10565.1 Lipocalin/cytosolic fatty-acid binding domain (partial), Macleaya cordata (protein, listed as Macleaya cordata) MIRYSGRWFEVASLKRGFAGSGQEDCHCTQGVYTFDSEAPAIQVDTFCVHGGPDGYITGIRGKVQCLSEEDLEKNETDLEKRVMIREKCYLRFPTLPFIPKEPYDVIATDYDNFALVSGAKDTSFIQIYSRTPNPGPEFIEKYKSYLGNYGYDPSMIKDTPQ .
[reply] Binds to CBD

[ask] I would be grateful if you could share the reported Purification Status (binding to CBD) for SEQ ID NO. 121: odorant-binding protein 1a-like, Mus caroli (Ryukyu mouse) (protein, listed as Mus caroli) MVKFLLLELAFGLAHAQMYGPWKTIAIAADNVDKMEISGELRLYFHQITCEKECKKMNVTFYVDENGQCSLTTITGYLQDDGKTYRSQFQGDNHYATVRTTPENIVFYSENVDRAGRKTKLVYVVGKNGSGSLK .
[reply] Binds to THC

[ask] I would be grateful if you could share the reported Purification Status (binding to CBD) for SEQ ID NO. 30: PSC68250.1 lipocalin-like domain (partial), Micractinium conductrix (protein, Micractinium conductrix, PSC68250.1 lipocalin-like domain (partial), Micractinium conductrix) MAYSGRWYEVASLKRGFAGEGQQDCHCTQGIYTPKEGGPEGAIKLEVDTFCVHGGPGGRLSGIQGSVSCADPLLLSYLPEFQTEMEMVEGFVAKCALRFDSLAFLPPEPYVVLRTDYTSYALVRGAKDRSFVQIYSRTPNPGAKFIAEQKAVLGQLGYPANDIVDTPQDCPEMAPQ .
[reply] Binds to CBD
